FYI, the data here is from PubChem BioAssay (NCI).

Tested on: M14 melanoma
Procedure Details: NCI-60 one-dose screen, 48 h (100 = growth as untreated, 0 = no growth, -100 = all killed)
Assay Setup: 10 µM unless noted
Compounds without any hit were thinned out: in the full panel of roughly 83,000, 20% have a hit.
Decision: growth compared against 80%; not below it gives true, below it gives false.

Worked examples, 5 compounds total:
Cn1c(=O)c2[nH]c(N/N=C/c3ccccc3Br)nc2n(C)c1=O; true
COC(=O)/C=C1/SC(=Nc2ccc(C)cc2)N(CCc2c[nH]c3ccc(O)cc23)C1=O; false
CCN(CC)c1nc(SCc2ccccc2Cl)ncc1C; true
CN1C(=O)N(C)C2Nn3c(s/c(=C\c4ccc(C(F)(F)F)cc4)c3=O)=NC21 (stereo not given); true
Cc1ccc(/C=C2\CN(C(=O)OC(C)(C)C)C/C(=C\c3ccc(C)cc3)C2=O)cc1; false

Q: Entry COc1ccc(/C=C2\COc3ccc(O)cc3C2=O)c(OC)c1OC : is its growth no less than 80%?
Ans: true

Q: growth >= 80% for O=C1/C(=C/c2ccc(-c3ccc(Br)cc3)o2)SC(=S)N1CCc1ccc(O)cc1 ?
Ans: false

Q: Textbook exercise: given the entry O=C(c1ccccc1)C1C(=O)N2C(=S)N(c3ccccc3)C(=O)C2C1c1ccc(Cl)cc1 (stereo not given) , state whether its growth is greater than or equal to 80%.
Ans: true

Q: Can Cc1cnc(C(=O)NNc2nc3sc4c(c3c(=O)n2C)C(C)CCC4)cn1 (stereo not given) be said to have growth at or above 80%?
Ans: false
